protocol text: Water solubility relative to Paclitaxel solubility
Assay type: ADME
measurement context: buffer
observation type: Ratio

P = CC(=O)O[C@@]12CO[C@@H]1C[C@H](O)[C@@]1(C)C(=O)[C@H](O)C3=C(C)[C@@H](OC(=O)[C@H](O)[C@@H](NC(=O)Nc4ccccc4)C(C)(C)C)C[C@@](O)([C@@H](OC(=O)c4ccccc4)[C@H]21)C3(C)C
Q = CC(=O)O[C@@]12CO[C@@H]1C[C@H](O)[C@@]1(C)C(=O)[C@H](O)C3=C(C)[C@@H](OC(=O)[C@H](O)[C@@H](NC(=O)OC(C)(C)C)c4ccccc4)C[C@@](O)([C@@H](OC(=O)c4ccccc4)[C@H]21)C3(C)C.O.O.O
Query block: I would appreciate it if you could say which entry, P or Q , has the lower Ratio value. // caller expects the label of the chosen entry
Result block: P
(P: 4.7, Q: 17)

* * *

assay system: Tubulin (Bos taurus) (UniProt Q6B856+Q862L2+Q862F3)
protocol text: Promotion of tubulin polymerization
observation type: ED50 (µM)

>>> reported_value("CC(=O)O[C@@]12CO[C@@H]1C[C@H](O)[C@@]1(C)C(=O)[C@H](O)C3=C(C)[C@@H](OC(=O)[C@H](O)[C@@H](/N=C(/S)NC(C)(C)C)C(C)(C)C)C[C@@](O)([C@@H](OC(=O)c4ccccc4)[C@H]21)C3(C)C")
3.2
>>> reported_value("CC(=O)O[C@@]12CO[C@@H]1C[C@H](O)[C@@]1(C)C(=O)[C@H](O)C3=C(C)[C@@H](OC(=O)[C@H](O)[C@@H](NC(=O)Oc4ccccc4)C(C)(C)C)C[C@@](O)([C@@H](OC(=O)c4ccccc4)[C@H]21)C3(C)C")
1.3
>>> reported_value("CCCCOC(=O)N[C@H]([C@@H](O)C(=O)O[C@H]1C[C@@]2(O)[C@@H](OC(=O)c3ccccc3)[C@@H]3[C@]4(OC(C)=O)CO[C@@H]4C[C@H](O)[C@@]3(C)C(=O)[C@H](O)C(=C1C)C2(C)C)C(C)(C)C")
0.8
>>> reported_value("CCC(C)(C)OC(=O)N[C@H]([C@@H](O)C(=O)O[C@H]1C[C@@]2(O)[C@@H](OC(=O)c3ccccc3)[C@@H]3[C@]4(OC(C)=O)CO[C@@H]4C[C@H](O)[C@@]3(C)C(=O)[C@H](O)C(=C1C)C2(C)C)C(C)(C)C")
0.42
>>> reported_value("CC(=O)O[C@@]12CO[C@@H]1C[C@H](O)[C@@]1(C)C(=O)[C@H](O)C3=C(C)[C@@H](OC(=O)[C@H](O)[C@@H](NC(=O)c4ccccc4)C(C)(C)C)C[C@@](O)([C@@H](OC(=O)c4ccccc4)[C@H]21)C3(C)C")
1.7

A = CC(=O)O[C@@]12CO[C@@H]1C[C@H](O)[C@@]1(C)C(=O)[C@H](O)C3=C(C)[C@@H](OC(=O)[C@H](O)[C@@H](NC(=O)C(C)(C)C)C(C)(C)C)C[C@@](O)([C@@H](OC(=O)c4ccccc4)[C@H]21)C3(C)C
B = CC(=O)O[C@@]12CO[C@@H]1C[C@H](O)[C@@]1(C)C(=O)[C@H](O)C3=C(C)[C@@H](OC(=O)[C@H](O)[C@@H](NC(=O)NC(C)(C)C)C(C)(C)C)C[C@@](O)([C@@H](OC(=O)c4ccccc4)[C@H]21)C3(C)C
Query block: Exercise: compare A and B ; which one has the greater ED50? // caller expects the label of the chosen entry
Result block: A
(A: 1.35 µM, B: 0.63 µM)
